Reference source: PubChem BioAssay AID1159580

# procedure_text: chemical genetic growth profiling, strain panel (AID 1159580);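 note: tested at 20 µM; growth read once vehicle control cultures reached saturation at 30 °C; 1 = growth at the plate median or of vehicle wells; lower values mean less growth of the strain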
# conditions: S. cerevisiae deletion strains, growth OD, locus YMR078C, strain ctf18, hits give low values
Hit rate of the full screen: of about 5,500 compounds, about 2,000 (36%) were called active. Roughly 18% stayed inconclusive and do not appear here. This is one part of the list.
measurement_label: normalized growth
Numbers only.

Example compounds with recorded normalized growth:
>  <compound>
CN1CCN(CCCN2c3ccccc3Sc3ccc(Cl)cc32)CC1

>  <normalized growth>
1

$$$$
>  <compound>
CCOc1nc2cccc(C(=O)OC(C)OC(=O)OC3CCCCC3)c2n1Cc1ccc(-c2ccccc2-c2nn[nH]n2)cc1 (centres undefined)

>  <normalized growth>
1.01

$$$$

Each compound below has a recorded value; state its normalized growth.
1. COc1cc(O)c(C(C)=O)c(OC)c1
2. CC1=C(C(=O)O)N2C(=O)[C@@H](NC(=O)[C@H](N)C3=CCC=CC3)C2SC1 (some centres undefined)
3. COc1c(O)cc(O)cc1O
4. CC(=O)N[C@@H](CC(=O)O)C(=O)O
5. CC(=O)OCC(=O)[C@@]1(O)CCC2C3CCC4=CC(=O)CC[C@]4(C)[C@@]3(F)[C@@H](O)C[C@@]21C (some centres undefined)
6. OCCN1CCN(CCCN2c3ccccc3Sc3ccc(Cl)cc32)CC1
7. COc1cc(OC)c2c(c1Cl)OC1(C2=O)C(O)=CC(=O)CC1C (centres undefined)

Response given:
1: 0.98; 2: 0.994; 3: 0.986; 4: 1; 5: 1.01; 6: 0.986; 7: 0.98
